Molecular target: Pro-neuregulin-1, membrane-bound isoform (Homo sapiens) (UniProt Q02297)
Sequence (Q02297 whole entry, looked up, canonical isoform): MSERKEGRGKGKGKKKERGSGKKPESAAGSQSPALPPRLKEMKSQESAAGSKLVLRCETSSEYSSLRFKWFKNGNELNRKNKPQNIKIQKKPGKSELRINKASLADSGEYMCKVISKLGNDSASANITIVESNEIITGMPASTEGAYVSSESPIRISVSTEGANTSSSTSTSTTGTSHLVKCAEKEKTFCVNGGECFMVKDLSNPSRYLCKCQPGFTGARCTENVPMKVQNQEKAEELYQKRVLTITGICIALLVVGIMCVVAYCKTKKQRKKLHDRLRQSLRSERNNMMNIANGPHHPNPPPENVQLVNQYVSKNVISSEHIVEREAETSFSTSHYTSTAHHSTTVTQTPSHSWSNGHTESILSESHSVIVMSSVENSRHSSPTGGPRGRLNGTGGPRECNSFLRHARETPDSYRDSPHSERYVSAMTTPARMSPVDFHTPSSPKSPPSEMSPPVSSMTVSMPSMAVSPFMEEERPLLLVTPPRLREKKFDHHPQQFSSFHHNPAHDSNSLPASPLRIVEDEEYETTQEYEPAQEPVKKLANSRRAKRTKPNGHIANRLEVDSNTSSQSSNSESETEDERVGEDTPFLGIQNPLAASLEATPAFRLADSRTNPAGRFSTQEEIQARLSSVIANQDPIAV
Test: NRG1 binders on small-molecule microarrays, primary screen, psychiatric disease protein project, biochemical, small-molecule microarray, fluorescence 635/667 (AID 1075);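 note: score combines 667 nm spot fluorescence with signal to noise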
Conditions: NRG1 binding, 635 nm fluorescence, higher = more signal
readout_kind: composite z-score

[[record]]
molecule = "CCC(CC)C(O)C1C=CC2C(=O)NC(=O)C2N1Nc1ccccn1 (configuration not stated)"
recorded_measurement = 0.675

[[record]]
molecule = "CC(C)C[C@@H]1NC(=O)[C@@H]2C[C@H](C(=O)O)[C@H](c3cccc(OCCO)c3)N2C1=O"
recorded_measurement = 0.402

[[record]]
molecule = "COc1cc2c(cc1OC)CN(C(=O)[C@@H]1[C@H]3C(=O)O[C@H](c4ccccc4)[C@H](c4ccccc4)N3[C@H](c3ccccc3OCCO)[C@@]13C(=O)Nc1ccc(C#CCCO)cc13)CC2"
recorded_measurement = 0.86

[[record]]
molecule = "C=C[C@H](CO)NS(=O)(=O)c1ccc(Br)cc1"
recorded_measurement = 0.456

[[record]]
molecule = "CC(C)C(O)C1C=CC2C(=O)N(c3ccccc3)C(=O)C2N1Nc1ccc([N+](=O)[O-])cc1 (configuration not stated)"
recorded_measurement = 1.34

[[record]]
molecule = "COC(=O)[C@@]1(Cc2ccc(F)cc2)[C@H]2c3cc(C(=O)N(C)C)n(Cc4ccccc4)c3C[C@H]2CN1C(=O)c1ccccc1"
recorded_measurement = 1.32

[[record]]
molecule = "COC(=O)C(CC#Cc1ccc2c(c1)[C@]1(C(=O)N2)[C@H](C(=O)Nc2nc3ccccc3s2)[C@H]2C(=O)O[C@H](c3ccccc3)[C@H](c3ccccc3)N2[C@@H]1c1ccccc1OCCO)C(=O)OC"
recorded_measurement = 1.07


====

Test: small-molecule binders of probe aLefty1, primary screen, biochemical, small-molecule microarray, 635/667 nm fluorescence (AID 1153);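 note: score merges spot fluorescence with signal-to-noise ratio from the scanned slide images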
Conditions: higher = more signal
composite z-score overview
readout_kind: composite z-score

[[record]]
smiles_structure = "C=CCNC(=O)[C@@H]1[C@H]2C(=O)O[C@H](c3ccccc3)[C@H](c3ccccc3)N2[C@H](c2ccccc2OCCO)[C@@]12C(=O)N(C(=O)OCCOC)c1ccccc12"
recorded_measurement = 0.238

[[record]]
smiles_structure = "COCCOC(=O)N1C(=O)[C@@]2(c3cc(C#CCNC(N)=O)ccc31)[C@H](C(=O)N1CCN(c3ncccn3)CC1)[C@H]1C(=O)O[C@H](c3ccccc3)[C@H](c3ccccc3)N1[C@@H]2c1ccc(OCCO)cc1"
recorded_measurement = 0.267

[[record]]
smiles_structure = "C=C(CC1([C@@H](NP(=O)(c2ccccc2)c2ccccc2)[C@H]2C[C@@H]2CCCC)CC1)c1ccccc1"
recorded_measurement = 0.568

[[record]]
smiles_structure = "CC(=O)NCCCC[C@@H]1NC(=O)[C@H]2C[C@@H](C(=O)NCCCCCCNC(=O)CS)[C@@H](c3ccc(O)cc3)N2C1=O"
recorded_measurement = 0.132

[[record]]
smiles_structure = "COC(=O)[C@@]1(CCS(=O)(=O)c2ccccc2)N=C(c2ccc(OCCCO)cc2)O[C@H]1c1ccccc1CN=[N+]=[N-]"
recorded_measurement = 0.365

[[record]]
smiles_structure = "C=C(COC)/C(=C/C[C@@H](OC(C)=O)c1ccc(OCCO)cc1)c1cnc2ccccc2c1"
recorded_measurement = 0.127

